// data source = ChEMBL document CHEMBL1165887

# Tested on: Calf thymus DNA
# measurement protocol: Binding affinity to calf thymus DNA assessed as change in melting temperature after 18 hrs
# Type: nucleic-acid assay
# protocol conditions: Bos taurus
experimental readout: ΔTm
Give your result as the value with the unit written after it.

Recorded results for 2 molecules are shown here.
[[record]]
smiles_repr = "COc1cc2c(cc1OC)C(=O)N1C=C(c3ccc(C(C)(C)C)cc3)C[C@H]1C=N2"
tested_on = "Calf thymus DNA"
experimental_readout = "ΔTm"
result = "9.2 °C"

[[record]]
smiles_repr = "COc1cc2c(cc1OC)C(=O)N1C=C(c3cnc4ccccc4c3)C[C@H]1C=N2"
tested_on = "Calf thymus DNA"
experimental_readout = "ΔTm"
result = "18.2 °C"


Shifting focus to the molecule that follows.
Give measured ΔTm for "COc1cc2c(cc1OC)C(=O)N1C=C(c3ccc4ccccc4c3)C[C@H]1C=N2" (Calf thymus DNA).
15.7 °C

----------
Below: a set of entries, each annotated with reported TGI.
# measurement protocol: Growth inhibition of human NCI60 cells after 48 hrs by SRB assay
# Assay type: functional
# protocol conditions: NCI60, 48 h
Report as a plain number; the unit nM is understood.

[[record]]
smiles_repr = "COc1cc2c(cc1OC)C(=O)N1C=C(c3ccc(C(=O)N4CCN(C)CC4)cc3)C[C@H]1C=N2"
experimental_readout = "TGI"
numeric_readout = 710

[[record]]
smiles_repr = "COc1cc2c(cc1OC)C(=O)N1C=C(c3ccc(C)cc3)C[C@H]1C=N2"
experimental_readout = "TGI"
numeric_readout = 180

[[record]]
smiles_repr = "COc1ccc2cc(C3=CN4C(=O)c5cc(OC)c(OC)cc5N=C[C@@H]4C3)ccc2c1"
experimental_readout = "TGI"
numeric_readout = 7

[[record]]
smiles_repr = "COc1cc2c(cc1OC)C(=O)N1C=CC[C@H]1C=N2"
experimental_readout = "TGI"
numeric_readout = 8130

[[record]]
smiles_repr = "COc1cc2c(cc1OC)C(=O)N1C=C(c3ccccc3)C[C@H]1[C@H](S(=O)(=O)O)N2"
experimental_readout = "TGI"
numeric_readout = 430


Fill in TGI for record "COc1cc2c(cc1OC)C(=O)N1C=C(c3ccc(C(=O)NCCN(C)C)cc3)C[C@H]1C=N2"
90

Fill in TGI for record "COc1ccc([C@H]2C[C@H]3C=Nc4cc(OC)c(OC)cc4C(=O)N3C2)cc1"
43600

Fill in TGI for record "COc1cc2c(cc1OC)C(=O)N1C=C(c3ccc4ccccc4c3)C[C@H]1C=N2"
15
